Target: Recombinant human his-tagged IGF R extracellular domain protein (human) (UniProt P08069)
Test: SPR, Ab captured via anti-huIgG Fc, dissociation at pH 6
MEASUREMENT_TYPE: kon (M⁻¹ s⁻¹)
Could you give me the number in M⁻¹ s⁻¹? Just the number is fine.

Record excerpt, results attached:
BINDER: VRDN-02001 (antibody, V domains shown) VH: QVQLQESGPGLVKPSETLSLTCTVSHYSITGGYLWNWIRQPPGKGLEWIGYISYDGTNNYKPSLKDRVTISRDTSKNQFSLKLSSVTAADTAVYYCARYGRVFFDYWGQGTLVTVSS VL: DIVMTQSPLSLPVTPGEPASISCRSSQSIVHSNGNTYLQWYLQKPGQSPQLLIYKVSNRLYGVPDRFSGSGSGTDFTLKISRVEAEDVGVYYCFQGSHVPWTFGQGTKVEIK
VALUE: 96000

BINDER: VRDN-02014 (antibody, V domains shown) VH: QVQLQESGPGLVKPSETLSLTCTVSGYSITGGYLWNWIRQPPGKGLEWIGYIHYDGTNNYKPSLKDRVTISRDTSKNQFSLKLSSVTAADTAVYYCARYGRVFFDYWGQGTLVTVSS VL: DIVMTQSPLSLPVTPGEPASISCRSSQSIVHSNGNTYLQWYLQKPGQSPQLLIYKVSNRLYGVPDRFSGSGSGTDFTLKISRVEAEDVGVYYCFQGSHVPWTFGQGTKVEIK
VALUE: 138000

BINDER: VRDN-02067 (antibody, V domains shown) VH: QVQLQESGPGLVKPSETLSLTCTVSGYSITGGYLWNWIRQPPGKGLEWIGYISYDGTNNYKPSLKDRVTISRDTSKNQFSLKLSSVTAADTAVYYCARHGRVFFDYWGQGTLVTVSS VL: DIVMTQSPLSLPVTPGEPASISCRSSQSIVHSNGNTYLQWYLQKPGQSPQLLIYKVSNRLYGVPDRFSGSGSGTDFTLKISRVEAEDVGVYYCFQGSHVHWTFGQGTKVEIK
VALUE: 175000

BINDER: VRDN-02005 (antibody, V domains shown) VH: QVQLQESGPGLVKPSETLSLTCTVSGYSIHGGYLWNWIRQPPGKGLEWIGYISYDGTNNYKPSLKDRVTISRDTSKNQFSLKLSSVTAADTAVYYCARYGRVFFDYWGQGTLVTVSS VL: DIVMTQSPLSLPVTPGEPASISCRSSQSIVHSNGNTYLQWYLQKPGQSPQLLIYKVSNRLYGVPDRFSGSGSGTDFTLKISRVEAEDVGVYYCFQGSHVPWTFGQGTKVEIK
VALUE: 102000

Could you now consider this next binder?
Please fill in: kon reported for VRDN-02017 (antibody, V domains shown) VH: QVQLQESGPGLVKPSETLSLTCTVSGYSITGGYLWNWIRQPPGKGLEWIGYISYDHTNNYKPSLKDRVTISRDTSKNQFSLKLSSVTAADTAVYYCARYGRVFFDYWGQGTLVTVSS VL: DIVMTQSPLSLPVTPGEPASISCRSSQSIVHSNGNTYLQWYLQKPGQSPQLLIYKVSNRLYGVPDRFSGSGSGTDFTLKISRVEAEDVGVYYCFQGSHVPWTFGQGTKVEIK = 96000
